# Assay explanation: activity coefficient (dimensionless); of the first substance listed, at infinite dilution; xn = mol fraction of the nth substance listed
# Conditions: 323.15 K; Liquid; Chromatography; x1 = 0

Compound: C1CCCCCC1 [cycloheptane] + N#C[N-]C#N.N#C[N-]C#N.c1ccc(Cn2cc[n+](COCCCOC[n+]3ccn(Cc4ccccc4)c3)c2)cc1
activity coefficient: 117
//
Compound: CC1CCCCC1 [methylcyclohexane] + CCCOC[n+]1ccn(Cc2ccccc2)c1.O=S(=O)([N-]S(=O)(=O)C(F)(F)F)C(F)(F)F
activity coefficient: 6.47
//
Compound: c1ccncc1 [pyridine] + CCCCCCCCn1cc[n+](COCCC)c1C.O=S(=O)([N-]S(=O)(=O)C(F)(F)F)C(F)(F)F
activity coefficient: 0.35
//
Compound: CCCCO [butan-1-ol] + CN(C)c1cc[n+](COCCCOC[n+]2ccc(N(C)C)cc2)cc1.O=S(=O)([N-]S(=O)(=O)C(F)(F)F)C(F)(F)F.O=S(=O)([N-]S(=O)(=O)C(F)(F)F)C(F)(F)F
activity coefficient: 1.95
//
Compound: CC1CCCCC1 [methylcyclohexane] + CCCCCCCCn1cc[n+](COCCC)c1C.O=S(=O)([N-]S(=O)(=O)C(F)(F)F)C(F)(F)F
activity coefficient: 3.09
//
Compound: Cc1ccc(C)cc1 [1,4-dimethylbenzene] + CCCOC[n+]1ccn(C)c1.N#C[N-]C#N
activity coefficient: 5.98
//
Compound: CCOCC [diethyl ether] + CCCCCCCCn1cc[n+](COCCCOC[n+]2ccn(CCCCCCCC)c2C)c1C.O=S(=O)([N-]S(=O)(=O)C(F)(F)F)C(F)(F)F.O=S(=O)([N-]S(=O)(=O)C(F)(F)F)C(F)(F)F
activity coefficient: 0.86
//
Compound: c1ccncc1 [pyridine] + Cn1cc[n+](COCCCOC[n+]2ccn(C)c2)c1.O=S(=O)([N-]S(=O)(=O)C(F)(F)F)C(F)(F)F.O=S(=O)([N-]S(=O)(=O)C(F)(F)F)C(F)(F)F
activity coefficient: 0.4
//
Compound: C#CCCCCC [1-heptyne] + CCCCCCCCn1cc[n+](COCCCOC[n+]2ccn(CCCCCCCC)c2C)c1C.O=S(=O)([N-]S(=O)(=O)C(F)(F)F)C(F)(F)F.O=S(=O)([N-]S(=O)(=O)C(F)(F)F)C(F)(F)F
activity coefficient: 1.4
//
Compound: CC(C)CO [2-methyl-1-propanol] + CCCOC[n+]1ccn(C)c1.O=S(=O)([N-]S(=O)(=O)C(F)(F)F)C(F)(F)F
activity coefficient: 2.18
//
Compound: Cc1ccccc1C [1,2-dimethylbenzene] + CCCOC[n+]1ccn(Cc2ccccc2)c1.F[B-](F)(F)F
activity coefficient: 4.3
//
Compound: CCCCCC [hexane] + CCCCCCCCn1cc[n+](COCCC)c1C.N#C[N-]C#N
activity coefficient: 7.08
//
Compound: CCCC(C)=O [pentan-2-one] + CCCOC[n+]1ccn(C)c1.N#C[N-]C#N
activity coefficient: 2.24

----------
# Assay explanation: activity coefficient (dimensionless); of the first substance listed, at infinite dilution; xn = mol fraction of the nth substance listed
# Conditions: 343.15 K; Liquid; Chromatography; x1 = 0

Compound: CC#N [acetonitrile] + N#C[N-]C#N.N#C[N-]C#N.c1ccc(Cn2cc[n+](COCCCOC[n+]3ccn(Cc4ccccc4)c3)c2)cc1
activity coefficient: 0.98
//
Compound: ClCCl [dichloromethane] + CCCOC[n+]1ccn(C)c1.F[B-](F)(F)F
activity coefficient: 1.19
//
Compound: CCCCCCCCC [nonane] + CCCOC[n+]1ccn(Cc2ccccc2)c1.F[B-](F)(F)F
activity coefficient: 126
//
Compound: Cc1ccccc1 [toluene] + CCCCCCCCn1cc[n+](COCCCOC[n+]2ccn(CCCCCCCC)c2C)c1C.O=S(=O)([N-]S(=O)(=O)C(F)(F)F)C(F)(F)F.O=S(=O)([N-]S(=O)(=O)C(F)(F)F)C(F)(F)F
activity coefficient: 0.54
//
Compound: CC#N [acetonitrile] + CCCOC[n+]1ccn(C)c1.N#C[N-]C#N
activity coefficient: 1.09
//
Compound: CCc1ccccc1 [ethylbenzene] + Cn1cc[n+](COCCCOC[n+]2ccn(C)c2)c1.N#C[N-]C#N.N#C[N-]C#N
activity coefficient: 10.7
//
Compound: CCCC(C)=O [pentan-2-one] + CCCOC[n+]1ccn(C)c1.F[B-](F)(F)F
activity coefficient: 3.31
//
Compound: C[N+](=O)[O-] [nitromethane] + Cn1cc[n+](COCCCOC[n+]2ccn(C)c2)c1.N#C[N-]C#N.N#C[N-]C#N
activity coefficient: 0.57
//
Compound: ClCCl [dichloromethane] + CCCOC[n+]1ccn(Cc2ccccc2)c1.F[B-](F)(F)F
activity coefficient: 0.79
//
Compound: C[N+](=O)[O-] [nitromethane] + CCCOC[n+]1ccn(Cc2ccccc2)c1.F[B-](F)(F)F
activity coefficient: 0.58
//
Compound: c1ccsc1 [thiophene] + Cn1cc[n+](COCCCOC[n+]2ccn(C)c2)c1.O=S(=O)([N-]S(=O)(=O)C(F)(F)F)C(F)(F)F.O=S(=O)([N-]S(=O)(=O)C(F)(F)F)C(F)(F)F
activity coefficient: 0.78
//
Compound: C#CCCCCC [1-heptyne] + CCCOC[n+]1ccn(C)c1.F[B-](F)(F)F
activity coefficient: 16.7
//
Compound: ClCCl [dichloromethane] + CCCCCCCCn1cc[n+](COCCCOC[n+]2ccn(CCCCCCCC)c2C)c1C.N#C[N-]C#N.N#C[N-]C#N
activity coefficient: 0.31
//
Compound: CCc1ccccc1 [ethylbenzene] + CCCOC[n+]1ccn(C)c1.F[B-](F)(F)F
activity coefficient: 10.7
//
Compound: CCCCCCC [heptane] + CCCOC[n+]1ccc(N(C)C)cc1.O=S(=O)([N-]S(=O)(=O)C(F)(F)F)C(F)(F)F
activity coefficient: 13.9
//
Compound: Cc1ccccc1C [1,2-dimethylbenzene] + CCCOC[n+]1ccn(C)c1.O=S(=O)([N-]S(=O)(=O)C(F)(F)F)C(F)(F)F
activity coefficient: 2.29
//
Compound: ClC(Cl)Cl [trichloromethane] + N#C[N-]C#N.N#C[N-]C#N.c1ccc(Cn2cc[n+](COCCCOC[n+]3ccn(Cc4ccccc4)c3)c2)cc1
activity coefficient: 1.33
//
Compound: CO [methanol] + CCCCCCCCn1cc[n+](COCCC)c1C.N#C[N-]C#N
activity coefficient: 0.28
//
Compound: C#CCCCC [1-hexyne] + CCCOC[n+]1ccn(C)c1.O=S(=O)([N-]S(=O)(=O)C(F)(F)F)C(F)(F)F
activity coefficient: 3.4
//
Compound: CCCO [propan-1-ol] + CCCOC[n+]1ccn(C)c1.F[B-](F)(F)F
activity coefficient: 2.53
//
Compound: CCCCCCCCCC [decane] + CCCOC[n+]1ccn(C)c1.F[B-](F)(F)F
activity coefficient: 500
//
Compound: CC1CCCCC1 [methylcyclohexane] + CCCCCCCCn1cc[n+](COCCCOC[n+]2ccn(CCCCCCCC)c2C)c1C.N#C[N-]C#N.N#C[N-]C#N
activity coefficient: 4.82
//
Compound: CC(C)O [propan-2-ol] + CCCOC[n+]1ccn(Cc2ccccc2)c1.N#C[N-]C#N
activity coefficient: 0.82
//
Compound: Cc1cccc(C)c1 [1,3-dimethylbenzene] + CCCOC[n+]1ccn(Cc2ccccc2)c1.F[B-](F)(F)F
activity coefficient: 4.91
//
Compound: CCCCCCCCC [nonane] + CCCOC[n+]1ccn(Cc2ccccc2)c1.O=S(=O)([N-]S(=O)(=O)C(F)(F)F)C(F)(F)F
activity coefficient: 17.5
//
Compound: CC(C)CO [2-methyl-1-propanol] + CCCOC[n+]1ccn(Cc2ccccc2)c1.F[B-](F)(F)F
activity coefficient: 2.34
//
Compound: Cc1cccc(C)c1 [1,3-dimethylbenzene] + Cn1cc[n+](COCCCOC[n+]2ccn(C)c2)c1.N#C[N-]C#N.N#C[N-]C#N
activity coefficient: 10.5
//
Compound: Cc1ccc(C)cc1 [1,4-dimethylbenzene] + CCCOC[n+]1ccc(N(C)C)cc1.O=S(=O)([N-]S(=O)(=O)C(F)(F)F)C(F)(F)F
activity coefficient: 1.45
//
Compound: c1ccccc1 [benzene] + CCCOC[n+]1ccn(C)c1.O=S(=O)([N-]S(=O)(=O)C(F)(F)F)C(F)(F)F
activity coefficient: 1.17
//
Compound: CCCCCCCCC [nonane] + CCCOC[n+]1ccn(C)c1.F[B-](F)(F)F
activity coefficient: 337
